Biological target: GABA transporter 4 (Mus musculus)
Assay: Inhibition of mouse GAT4 expressed in HEK293 cells assessed as remaining [3H]GABA uptake at 100 uM preincubated for 25 mins followed by [3H]GABA addition and measured after 4 mins by liquid scintillation counting method
Type: cell-based

{"columns": ["molecule", "Activity (%)"],
 "data": [
  ["COc1ccc(C(/C=C/CN2CCCC(C(=O)O)C2)(Cc2ccccc2)c2ccc(OC)cc2)cc1 (racemic)", 69],
  ["COc1ccc(C(/C=C/CN2CCCC(C(=O)O)C2)(c2ccc(OC)cc2)c2nccn2C)cc1 (racemic)", 83],
  ["O=C(O)C1CCCN(C/C=C/CC(c2ccccc2)c2ccccc2)C1 (racemic)", 82],
  ["COc1ccc(C(C/C=C/CN2CCCC(C(=O)O)C2)c2ccc(OC)cc2)cc1 (racemic)", 84],
  ["COc1ccc(C(/C=C/CN2CCCC(C(=O)O)C2)(c2ccc(OC)cc2)c2nccs2)cc1 (racemic)", 49],
  ["O=C(O)C1CCCN(C/C=C/C(c2ccccc2)(c2ccccc2)c2ccccc2)C1 (racemic)", 89]
]}

* * *

Tested on: Betaine/GABA transporter BGT1 (Mus musculus)
Assay: Inhibition of mouse GAT2 expressed in HEK293 cells assessed as remaining [3H]GABA uptake at 100 uM preincubated for 25 mins followed by [3H]GABA addition and measured after 4 mins by liquid scintillation counting method
readout.name: Activity (%)

{"columns": ["compound", "unit", "result.value"],
 "data": [
  ["COc1ccc(C(C/C=C/CN2CCCC(C(=O)O)C2)c2ccc(OC)cc2)cc1 (racemic)", "%", 96],
  ["COc1ccc(C(/C=C/CN2CCCC(C(=O)O)C2)(c2ccc(OC)cc2)c2ccc3c(c2)OCO3)cc1 (racemic)", "%", 53],
  ["COc1ccc(C(/C=C/CN2CCCC(C(=O)O)C2)c2ccc(OC)cc2)cc1 (racemic)", "%", 51],
  ["O=C(O)C1CCCN(C/C=C/CC(c2ccccc2)(c2ccccc2)c2ccccc2)C1 (racemic)", "%", 55],
  ["O=C(O)C1CCCN(C/C=C/CC(c2ccccc2)c2ccccc2)C1 (racemic)", "%", 96]
]}

* * *

Target: GABA transporter 4 (Mus musculus, UniProt P31650)
Sequence (P31650 whole entry): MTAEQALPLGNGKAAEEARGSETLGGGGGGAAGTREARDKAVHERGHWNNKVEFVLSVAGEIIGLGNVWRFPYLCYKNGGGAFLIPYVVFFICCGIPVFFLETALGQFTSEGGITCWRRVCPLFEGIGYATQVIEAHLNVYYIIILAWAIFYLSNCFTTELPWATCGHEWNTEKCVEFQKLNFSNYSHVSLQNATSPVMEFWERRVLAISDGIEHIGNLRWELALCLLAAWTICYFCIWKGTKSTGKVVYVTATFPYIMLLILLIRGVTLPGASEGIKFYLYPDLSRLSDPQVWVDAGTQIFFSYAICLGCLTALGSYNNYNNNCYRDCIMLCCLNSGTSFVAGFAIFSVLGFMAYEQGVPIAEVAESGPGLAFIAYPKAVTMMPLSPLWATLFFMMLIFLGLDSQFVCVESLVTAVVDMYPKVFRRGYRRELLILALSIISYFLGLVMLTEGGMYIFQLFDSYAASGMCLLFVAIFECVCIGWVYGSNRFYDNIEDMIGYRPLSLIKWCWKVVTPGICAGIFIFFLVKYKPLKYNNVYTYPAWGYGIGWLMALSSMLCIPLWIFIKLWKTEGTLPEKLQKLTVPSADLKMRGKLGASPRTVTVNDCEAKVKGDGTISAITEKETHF
Assay: Inhibition of mouse GAT4 expressed in HEK293 cells assessed as reduction in [3H]GABA uptake preincubated for 25 mins followed by [3H]GABA addition and measured after 4 mins by liquid scintillation counting method
Labelling field: enter 1 if recorded IC50 is less than 70 µM. Enter 0 if it equals or exceeds that cut-off.

{"columns": ["compound", "label.value"],
 "data": [
  ["O=C(O)C1CCCN(C/C=C/C(c2ccc3c(c2)OCO3)(c2ccc3c(c2)OCO3)c2ccc3c(c2)OCO3)C1 (racemic)", 1],
  ["O=C(O)C1CCCN(C/C=C/C(c2ccc3sccc3c2)(c2ccc3sccc3c2)c2ccc3sccc3c2)C1 (racemic)", 1],
  ["COc1ccc(CC(/C=C/CN2CCCC(C(=O)O)C2)(c2ccc(OC)cc2)c2ccc(OC)cc2)cc1 (racemic)", 1],
  ["O=C(O)C1CCCN(C/C=C/CC(c2ccccc2)(c2ccccc2)c2ccccc2)C1 (racemic)", 0],
  ["O=C(O)C1CCCN(C/C=C/C(c2ccc3occc3c2)(c2ccc3occc3c2)c2ccc3occc3c2)C1 (racemic)", 1]
]}

Sourced from ChEMBL document CHEMBL4261659
